Data origin: ChEMBL document CHEMBL1122156

tested.system: Dihydrofolate reductase (Gallus gallus)
reported.metric: Log 1/Ki app
When you answer, write just the number.

# annotated cases, reported Log 1/Ki app shown
1. CC(=O)Nc1ccc(Cc2cnc(N)nc2N)cc1; 4.26
2. CCCCOCc1cccc(Cc2cnc(N)nc2N)c1; 5.17
3. Nc1ncc(Cc2ccc([N+](=O)[O-])cc2)c(N)n1; 4.37
4. Nc1ncc(Cc2cccc(F)c2)c(N)n1; 4.7
5. Nc1ncc(Cc2cccc(I)c2)c(N)n1; 4.79
6. Nc1ncc(Cc2ccccc2)c(N)n1; 4.71

Data request: Item Nc1ncc(Cc2cccc(Cl)c2)c(N)n1 has what recorded Log 1/Ki app?
Data returned: 5.01

Data request: # iterate: Nc1ncc(Cc2ccc(F)cc2)c(N)n1
Data returned: 4.79

Data request: # iterate: Nc1ncc(Cc2ccc(OC(F)(F)F)cc2)c(N)n1
Data returned: 4.26

###

Sequence of the target: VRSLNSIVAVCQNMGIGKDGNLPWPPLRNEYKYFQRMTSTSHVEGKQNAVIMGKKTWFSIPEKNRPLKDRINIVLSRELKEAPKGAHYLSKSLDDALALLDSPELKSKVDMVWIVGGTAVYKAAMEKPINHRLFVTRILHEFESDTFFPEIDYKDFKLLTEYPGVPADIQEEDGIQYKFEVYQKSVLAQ
reported.metric: Log 1/Ki app
When you answer, write just the number.

Data request: Item COc1ccc(Cc2cnc(N)nc2N)cc1OC has what recorded Log 1/Ki app?
Data returned: 4.46

Data request: # iterate: Cc1cccc(Cc2cnc(N)nc2N)c1
Data returned: 4.72

Data request: # iterate: COc1ccc(Cc2cnc(N)nc2N)cc1C(F)(F)F
Data returned: 4.99

Data request: # iterate: CN(C)c1ccc(Cc2cnc(N)nc2N)cc1
Data returned: 4.01

Data request: # iterate: COCCOc1c(OC)cc(Cc2cnc(N)nc2N)cc1OC
Data returned: 3.64
